Test system: MMP-2 mRNA expression
Experiment: q-PCR, mRNA expression of MMP-2 in PMA-induced THP-1 cells
Type: cell-based, Human
Details: Homo sapiens, 24 h, q-PCR, 1-50 μM, read-out: IC50, down-regulation of mRNA expression of MMP-2
ASSAY METRIC: IC50 (µM)

INSERT INTO results (compound, assayed_system, result_number) VALUES
  ('CC1CC(C(O)C(C)(C)O)OC2(O)C(=O)C3(C)C4=CCC5C(C)(C)C(=O)CCC56CC46CC(O)C3(C)C12 (stereo not shown)', 'MMP-2 mRNA expression', 6.32);

---

Tested on: MMP-9 mRNA expression
Experiment: q-PCR, mRNA expression of MMP-9 in PMA-induced THP-1 cells
Type: cell-based, Human
Conditions: Homo sapiens, 24 h, q-PCR, 1-50 μM, read-out: IC50, down-regulation of mRNA expression of MMP-9
ASSAY METRIC: IC50 (µM)

INSERT INTO measurements (compound, result_number) VALUES
  ('CC1CC(C(O)C(C)(C)O)OC2(O)C(=O)C3(C)C4=CCC5C(C)(C)C(=O)CCC56CC46CC(O)C3(C)C12 (stereo not shown) [Compound 7]', 11.6);
